- TARGET: IRAK4 (Homo sapiens)
- Construct: endogenous in cells; host or cells: Karpas299
- Sequence (Q9NWZ3 whole entry): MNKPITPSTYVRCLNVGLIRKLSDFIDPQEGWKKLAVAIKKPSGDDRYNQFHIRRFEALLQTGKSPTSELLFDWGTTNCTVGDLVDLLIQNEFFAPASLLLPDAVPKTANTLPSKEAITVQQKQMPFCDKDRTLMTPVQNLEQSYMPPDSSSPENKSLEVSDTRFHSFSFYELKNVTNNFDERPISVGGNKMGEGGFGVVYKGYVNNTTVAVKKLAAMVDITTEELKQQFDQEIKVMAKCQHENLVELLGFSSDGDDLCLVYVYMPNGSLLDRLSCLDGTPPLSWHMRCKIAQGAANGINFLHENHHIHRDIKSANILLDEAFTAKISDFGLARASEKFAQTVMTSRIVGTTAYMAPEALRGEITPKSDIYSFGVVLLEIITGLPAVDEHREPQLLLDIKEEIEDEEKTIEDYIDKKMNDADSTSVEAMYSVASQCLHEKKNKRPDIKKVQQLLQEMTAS
- METHOD SUMMARY: IRAK4 Degradation Assay with Human Serum (Karpas299, HTRF/TR-FRET)
- Type: cell-based
- EXPERIMENTAL SETUP: Karpas-299 in human serum, 24 hrs treatment; read-out: IRAK4 degradtion with human serum assay DC50
Grouping key: DC50. Bins: low = under 3 nM, middle = from 3 nM up to 10 nM, high = 10 nM and over

Looking at COC[C@H]1CN([C@H]2CC[C@H](n3cc4cc(NC(=O)c5ccc6cc(C#N)cnn56)c(C(C)(C)O)cc4n3)CC2)CCN1C(=O)C1CN(c2cc(F)c([C@H]3CCC(=O)NC3=O)c(F)c2)C1 , which class would you pick?
high

Now the compound Cc1nc(C2CCC(=O)NC2=O)ccc1N1CCC(N2CCN([C@H]3CC[C@H](n4cc5cc(NC(=O)c6ccc7cc(C#N)cnn67)c(C(C)(C)O)cc5n4)CC3)CC2)CC1 (stereo partly shown)
low

Now the compound COC[C@H]1CN(CCc2cc(F)c([C@H]3CCC(=O)NC3=O)c(F)c2)CCN1[C@H]1CC[C@H](n2cc3cc(NC(=O)c4ccc5cc(C#N)cnn45)c(C(C)(C)O)cc3n2)CC1
middle

Now the compound C[C@@H]1CN([C@H]2CC[C@H](n3cc4cc(NC(=O)c5ccc6cc(C#N)cnn56)c(C(C)(C)O)cc4n3)CC2)CCN1CC1CN(c2cc(F)c([C@H]3CCC(=O)NC3=O)c(F)c2)C1
middle

Now the compound CC(C)(O)c1cc2nn([C@H]3CC[C@H](N4CCN(C(=O)C5CN(c6cc(F)c([C@H]7CCC(=O)NC7=O)c(F)c6)C5)CC4)CC3)cc2cc1NC(=O)c1ccc2cc(C#N)cnn12
high

Now the compound CC(C)(O)c1cc2nn(C3CCN(C4CCN(C(=O)[C@@H]5CCN(c6cc(F)c([C@H]7CCC(=O)NC7=O)c(F)c6)C5)CC4)CC3)cc2cc1NC(=O)c1ccc2cc(C#N)cnn12
high

Now the compound CC(C)(O)c1cc2nn(C3CCC(N4C[C@@H]5CN(C6CN(c7cc(F)c([C@H]8CCC(=O)NC8=O)c(F)c7)C6)C[C@H]5C4)CC3)cc2cc1NC(=O)c1ccc2cc(C#N)cnn12 (stereo partly shown)
low

Now the compound COC[C@@H]1CN([C@H]2CC[C@H](n3cc4cc(NC(=O)c5ccc6cc(C#N)cnn56)c(C(C)(C)O)cc4n3)CC2)CCN1CC1CN(c2cc(F)c([C@H]3CCC(=O)NC3=O)c(F)c2)C1
middle

Now the compound COc1cc2nn([C@H]3CC[C@H](N4CCN(CC5CN(c6cc(F)c([C@H]7CCC(=O)NC7=O)c(F)c6)C5)CC4)CC3)cc2cc1C(=O)Nc1cnc2cccnn12
low

Now the compound COC[C@H]1CN([C@H]2CC[C@H](n3cc4cc(NC(=O)c5ccc6cc(C#N)cnn56)c(C(C)(C)O)cc4n3)CC2)CCN1C(=O)C1CN(c2cc(F)c(N3CCC(=O)NC3=O)c(F)c2)C1
high

====

Exercise: for every item that follows, state its recorded Dmax.
- TARGET: IRAK4 (Homo sapiens)
- Construct: endogenous in cells; host or cells: Karpas299
- METHOD SUMMARY: IRAK4 Degradation Assay (Karpas299, HTRF/TR-FRET)
- Assay type: cell-based
- EXPERIMENTAL SETUP: Karpas-299 cells, 24 h treatment; maximum percentage of degradation; read-out: IRAK4 in Karpas-299 (24 h) Dmax (%)
State the answer as a number, implicitly in %.

What value of measured Dmax is listed for CC(C)(O)c1cc2nn([C@H]3CC[C@H](N4CCN(C[C@H]5C[C@@H](c6cc(F)c([C@H]7CCC(=O)NC7=O)c(F)c6)C5)CC4)CC3)cc2cc1NC(=O)c1ccc2cc(C#N)cnn12 ?
94

Now the molecule CC(C)(O)c1cc2nn([C@H]3CC[C@H](N4CCN(C[C@H]5CCN(c6ccc7c(c6)C(=O)N(C6CCC(=O)NC6=O)C7=O)C5)CC4)CC3)cc2cc1NC(=O)c1ccc2cc(C#N)cnn12 (some centres unmarked)
95

Now the molecule O=C1CC[C@H](c2c(F)cc(N3CC[C@@H](C(=O)N4CCN([C@H]5CC[C@H](n6cc7cc(NC(=O)c8cccc(C(F)(F)F)n8)c(C(=O)NC8CC8)cc7n6)CC5)CC4)C3)cc2F)C(=O)N1
99

Now the molecule Cc1cc(C2CCC(=O)NC2=O)c(F)cc1[C@H]1C[C@H](N2CCN([C@H]3CC[C@H](n4cc5cc(NC(=O)c6ccc7cc(C#N)cnn67)c(C(C)(C)O)cc5n4)CC3)CC2)C1 (some centres unmarked)
97

Now the molecule COc1cc2nn([C@H]3CC[C@H](CN4CCN(C(=O)[C@H]5CCN(c6ccc(N7CCC(=O)NC7=O)cc6)C5)CC4)CC3)cc2cc1NC(=O)c1cccn(C2CC2)c1=O
95
